# assayed_system: PA63 heptamer (Bacillus anthracis, UniProt P13423)
# Sequence (P13423 197-764 limits assumed): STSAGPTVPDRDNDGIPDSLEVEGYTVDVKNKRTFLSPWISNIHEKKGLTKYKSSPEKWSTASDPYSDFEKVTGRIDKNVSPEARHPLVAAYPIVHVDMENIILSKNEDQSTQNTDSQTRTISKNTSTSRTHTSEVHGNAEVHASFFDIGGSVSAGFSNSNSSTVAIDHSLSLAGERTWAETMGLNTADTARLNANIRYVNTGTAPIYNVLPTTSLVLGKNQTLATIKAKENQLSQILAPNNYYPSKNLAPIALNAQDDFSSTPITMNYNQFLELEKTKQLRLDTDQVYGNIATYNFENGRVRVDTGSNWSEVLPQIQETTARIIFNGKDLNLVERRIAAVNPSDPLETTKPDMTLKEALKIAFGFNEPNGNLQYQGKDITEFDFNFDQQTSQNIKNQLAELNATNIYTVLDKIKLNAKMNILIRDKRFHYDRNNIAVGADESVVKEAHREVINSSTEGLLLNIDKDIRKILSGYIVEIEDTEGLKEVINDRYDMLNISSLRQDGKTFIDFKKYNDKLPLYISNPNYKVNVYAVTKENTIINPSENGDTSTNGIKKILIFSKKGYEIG
# assay_notes: biochemical
# Assay type: binding
pIC50: −log10 of the molar value. Ends that are not written are not given here.
property: pIC50

## Task Given HTSTYWWLDGAP , state its recorded pIC50.
## Result ~3.82

Measured values drawn from patent US20030108556A1 for this set.
